# reported switch fluorescence ratio; entries follow
- System: ATP;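 further: ATP exposure 15 min at 22 °C before imaging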
- Test details: switch fluorescence ratio, 500 uM ATP over buffer (Cy3 cluster intensity, sum of 5 cycles each) (fold (ratio)); higher = stronger signal-on switching upon ATP binding; sequences stand for … in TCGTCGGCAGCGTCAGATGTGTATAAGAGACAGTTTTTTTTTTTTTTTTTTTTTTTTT…TC
- Cond: aptamer strand: ATP DNA aptamer (quencher-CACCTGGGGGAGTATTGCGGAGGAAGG + anchor), 100 nM annealed; ATP concentration: 500 uM
# print the numeric value only

Q: Missing value: switch fluorescence ratio, ATP, entry "TAGAGTAGCT" . Fill in?
Ans: 1

Q: # value lookup — system ATP, readout switch fluorescence ratio, item "TGTGGGAGGG"
Ans: 0.998

Q: GET /values?readout=switch fluorescence ratio&system=ATP&item= "TCGGTTCGTG"
Ans: 1.01

Q: State its switch fluorescence ratio on ATP: "ACAGTTGGCT"
Ans: 1.02

Q: For the record "GATTGGGGCG" , what value of switch fluorescence ratio is listed for ATP?
Ans: 1.02

Q: Look up switch fluorescence ratio with ATP for this sequence: "CGAGAAGAGA"
Ans: 1.01

Q: Provide the documented switch fluorescence ratio with ATP as the system for "TTCCCGGACT"
Ans: 1.02

Q: // lookup switch fluorescence ratio | system=ATP | key= "GGGTGTACTG"
Ans: 1

Q: Hello, I am looking for reported switch fluorescence ratio with ATP for "GGCGGGGGCA" . Could you help?
Ans: 0.995

Q: Short answer please: switch fluorescence ratio, ATP, entry "GACTAAATGA"
Ans: 1.01

###

- Test system: ATP;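 further: ATP exposure 15 min at 22 °C before imaging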
- Test details: switch fluorescence ratio, 500 uM ATP over buffer (Cy3 cluster intensity, sum of 5 cycles each) (fold (ratio)); higher = stronger signal-on switching upon ATP binding; sequences stand for … in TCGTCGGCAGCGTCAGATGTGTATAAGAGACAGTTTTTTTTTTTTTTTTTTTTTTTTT…TC
- Cond: aptamer strand: ATP DNA aptamer (quencher-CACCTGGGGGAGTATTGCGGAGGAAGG + anchor), 100 nM annealed; ATP concentration: 500 uM
Measured switch fluorescence ratio of individual entries
Give the figure by itself; no unit, no explanation.

Here's what some known entries look like.
{"columns": ["Record sequence", "switch fluorescence ratio"],
 "data": [
  ["AACTGTTCTG", 1.01],
  ["GTGTTTGGGT", 0.978],
  ["TTTTTCGGCC", 0.979],
  ["CGTTACCGGA", 1.01],
  ["TGGGGGTGGA", 1.01],
  ["TCCCCATGGC", 1.35]
]}

Q: Bench note: what switch fluorescence ratio did "TACGGTCCTG" show?
Ans: 0.992

Q: Please look up its switch fluorescence ratio: "ATATAAGGGT"
Ans: 1.02

Q: Find the recorded switch fluorescence ratio belonging to "GACATTTCTT" and report it.
Ans: 1.01

Q: What measured switch fluorescence ratio goes with "TTTTTTTAAG" ?
Ans: 1

Q: Which measured switch fluorescence ratio value corresponds to "CTAGTTTTTT" ?
Ans: 0.989

Q: Field request: switch fluorescence ratio | item: "CCTGCTTGGT"
Ans: 1.03

Q: // query switch fluorescence ratio value for entry "ATAGGGTTGC"
Ans: 1.01

Q: So what's the measured switch fluorescence ratio for this one? "GCTTTTTGCG"
Ans: 1.01

Q: State the recorded switch fluorescence ratio for this entry: "GACAGCAGGT"
Ans: 1.07

// data source = the supplement of paper PMC10126150
